Sourced from paper PMC6832265

SUBJECT OF TEST: recombinant Tdp1 (residues 149–608) (Homo sapiens, UniProt Q9NUW8)
Construct: recombinant Tdp1 (residues 149–608) was obtained from GenScript
Sequence (Q9NUW8 149-608): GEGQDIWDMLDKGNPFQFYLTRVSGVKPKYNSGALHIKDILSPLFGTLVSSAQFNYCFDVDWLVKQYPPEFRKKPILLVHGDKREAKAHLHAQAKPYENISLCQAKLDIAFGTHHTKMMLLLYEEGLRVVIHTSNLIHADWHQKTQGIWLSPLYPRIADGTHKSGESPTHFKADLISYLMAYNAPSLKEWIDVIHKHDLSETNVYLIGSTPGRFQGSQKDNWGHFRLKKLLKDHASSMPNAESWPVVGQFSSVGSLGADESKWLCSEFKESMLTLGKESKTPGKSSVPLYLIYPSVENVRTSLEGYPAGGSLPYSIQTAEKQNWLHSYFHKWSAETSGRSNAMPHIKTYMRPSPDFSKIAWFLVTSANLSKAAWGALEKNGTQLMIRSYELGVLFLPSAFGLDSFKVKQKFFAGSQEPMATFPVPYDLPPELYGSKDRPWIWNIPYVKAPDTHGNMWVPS
ASSAY NAME: Intrinsic tryptophan fluorescence quenching binding assay
RUN PARAMETERS: 10 µM Tdp1, 20 mM Tris, 250 mM NaCl, pH 8; triplicate
Procedure: The binding of the synthesized compounds to recombinant Tdp1 was also tested (Table 1 and Table 2) by using an intrinsic tryptophan fluorescence quenching assay. […] pET-28a(+) plasmid encoding recombinant Tdp1 (residues 149–608) was obtained from GenScript. […] Fluorescence was measured using a PerkinElmer EnSpire Multimode Reader. […] The excitation wavelength was 280 nm and intrinsic fluorescence was measured at 350 nm. […]
Assignment: determine reported Kd for the given molecules.
Please give a number only; it is taken to be in µM.

// assay recombinant Tdp1 (residues 149–608) (Homo sapiens, UniProt Q9NUW8), entry CC(=O)C1=C(O)C=C2Oc3c(-c4csc(N/N=C/c5ccoc5)n4)c(O)c(C)c(O)c3[C@]2(C)C1=O [(−)-16l] , Kd value = 233

// assay recombinant Tdp1 (residues 149–608) (Homo sapiens, UniProt Q9NUW8), entry CC(=O)C1=C(O)C=C2Oc3c(-c4csc(N/N=C/c5ccc[nH]5)n4)c(O)c(C)c(O)c3[C@]2(C)C1=O [(−)-16m] , Kd value = 354

// assay recombinant Tdp1 (residues 149–608) (Homo sapiens, UniProt Q9NUW8), entry CC(=O)C1=C(O)C=C2Oc3c(-c4csc(N/N=C/c5ccc(Br)s5)n4)c(O)c(C)c(O)c3[C@]2(C)C1=O [(−)-16f] , Kd value = 148

// assay recombinant Tdp1 (residues 149–608) (Homo sapiens, UniProt Q9NUW8), entry CC(=O)C1=C(O)C=C2Oc3c(-c4csc(N/N=C/c5ccc([N+](=O)[O-])s5)n4)c(O)c(C)c(O)c3[C@@]2(C)C1=O [(+)-16d] , Kd value = 597

// assay recombinant Tdp1 (residues 149–608) (Homo sapiens, UniProt Q9NUW8), entry CC(=O)C1=C(O)C=C2Oc3c(-c4csc(N/N=C/c5ccccn5)n4)c(O)c(C)c(O)c3[C@@]2(C)C1=O [(+)-16b] , Kd value = 77

// assay recombinant Tdp1 (residues 149–608) (Homo sapiens, UniProt Q9NUW8), entry COc1ccc(/C=N/Nc2nc(-c3c(O)c(C)c(O)c4c3OC3=CC(O)=C(C(C)=O)C(=O)[C@@]34C)cs2)cc1Cn1nc(C)c([N+](=O)[O-])c1C [(+)-17k] , Kd value = 156

// assay recombinant Tdp1 (residues 149–608) (Homo sapiens, UniProt Q9NUW8), entry COc1ccc(/C=N/Nc2nc(-c3c(O)c(C)c(O)c4c3OC3=CC(O)=C(C(C)=O)C(=O)[C@@]34C)cs2)cc1COc1cccc(F)c1 [(+)-17b] , Kd value = 131

// assay recombinant Tdp1 (residues 149–608) (Homo sapiens, UniProt Q9NUW8), entry CC(=O)C1=C(O)C=C2Oc3c(-c4csc(N/N=C/c5cc(Br)cs5)n4)c(O)c(C)c(O)c3[C@]2(C)C1=O [(−)-16h] , Kd value = 355

// assay recombinant Tdp1 (residues 149–608) (Homo sapiens, UniProt Q9NUW8), entry CC(=O)C1=C(O)C=C2Oc3c(-c4csc(N/N=C/c5ccco5)n4)c(O)c(C)c(O)c3[C@@]2(C)C1=O [(+)-16k] , Kd value = 67

// assay recombinant Tdp1 (residues 149–608) (Homo sapiens, UniProt Q9NUW8), entry COc1ccc(/C=N/Nc2nc(-c3c(O)c(C)c(O)c4c3OC3=CC(O)=C(C(C)=O)C(=O)[C@@]34C)cs2)cc1COc1ccc(Cl)c(C)c1 [(+)-17h] , Kd value = 188

// assay recombinant Tdp1 (residues 149–608) (Homo sapiens, UniProt Q9NUW8), entry COc1ccc(/C=N/Nc2nc(-c3c(O)c(C)c(O)c4c3OC3=CC(O)=C(C(C)=O)C(=O)[C@]34C)cs2)cc1COc1ccc(F)c(Cl)c1 [(−)-17d] , Kd value = 76

// assay recombinant Tdp1 (residues 149–608) (Homo sapiens, UniProt Q9NUW8), entry CC(=O)C1=C(O)C=C2Oc3c(-c4csc(N/N=C/c5cnc[nH]5)n4)c(O)c(C)c(O)c3[C@]2(C)C1=O [(−)-16o] , Kd value = 51

// assay recombinant Tdp1 (residues 149–608) (Homo sapiens, UniProt Q9NUW8), entry CC(=O)C1=C(O)C=C2Oc3c(-c4csc(N/N=C/c5cccs5)n4)c(O)c(C)c(O)c3[C@]2(C)C1=O [(−)-16g] , Kd value = 281

// assay recombinant Tdp1 (residues 149–608) (Homo sapiens, UniProt Q9NUW8), entry CC(=O)C1=C(O)C=C2Oc3c(-c4csc(N/N=C/c5c[nH]c6ccccc56)n4)c(O)c(C)c(O)c3[C@@]2(C)C1=O [(+)-16p] , Kd value = 268

// assay recombinant Tdp1 (residues 149–608) (Homo sapiens, UniProt Q9NUW8), entry COc1ccc(/C=N/Nc2nc(-c3c(O)c(C)c(O)c4c3OC3=CC(O)=C(C(C)=O)C(=O)[C@@]34C)cs2)cc1COc1ccc(F)cc1 [(+)-17a] , Kd value = 212

// assay recombinant Tdp1 (residues 149–608) (Homo sapiens, UniProt Q9NUW8), entry COc1ccc(/C=N/Nc2nc(-c3c(O)c(C)c(O)c4c3OC3=CC(O)=C(C(C)=O)C(=O)[C@@]34C)cs2)cc1COc1ccc(F)c(Cl)c1 [(+)-17d] , Kd value = 130

// assay recombinant Tdp1 (residues 149–608) (Homo sapiens, UniProt Q9NUW8), entry CC(=O)C1=C(O)C=C2Oc3c(-c4csc(N/N=C/c5ccco5)n4)c(O)c(C)c(O)c3[C@]2(C)C1=O [(−)-16k] , Kd value = 250

// assay recombinant Tdp1 (residues 149–608) (Homo sapiens, UniProt Q9NUW8), entry CC(=O)C1=C(O)C=C2Oc3c(-c4csc(N/N=C/c5ccncc5)n4)c(O)c(C)c(O)c3[C@@]2(C)C1=O [(+)-16a] , Kd value = 139

// assay recombinant Tdp1 (residues 149–608) (Homo sapiens, UniProt Q9NUW8), entry CC(=O)C1=C(O)C=C2Oc3c(-c4csc(N/N=C/c5ccc(-c6cccc(Cl)c6)o5)n4)c(O)c(C)c(O)c3[C@@]2(C)C1=O [(+)-16r] , Kd value = 113

// assay recombinant Tdp1 (residues 149–608) (Homo sapiens, UniProt Q9NUW8), entry CC(=O)C1=C(O)C=C2Oc3c(-c4csc(N/N=C/c5cnc[nH]5)n4)c(O)c(C)c(O)c3[C@@]2(C)C1=O [(+)-16o] , Kd value = 38

// assay recombinant Tdp1 (residues 149–608) (Homo sapiens, UniProt Q9NUW8), entry CC(=O)C1=C(O)C=C2Oc3c(-c4csc(N/N=C/c5ccc(Br)s5)n4)c(O)c(C)c(O)c3[C@@]2(C)C1=O [(+)-16f] , Kd value = 95

// assay recombinant Tdp1 (residues 149–608) (Homo sapiens, UniProt Q9NUW8), entry CC(=O)C1=C(O)C=C2Oc3c(-c4csc(N/N=C/c5cccn5C)n4)c(O)c(C)c(O)c3[C@@]2(C)C1=O [(+)-16n] , Kd value = 719

// assay recombinant Tdp1 (residues 149–608) (Homo sapiens, UniProt Q9NUW8), entry CC(=O)C1=C(O)C=C2Oc3c(-c4csc(N/N=C/c5cccnc5)n4)c(O)c(C)c(O)c3[C@]2(C)C1=O [(−)-16c] , Kd value = 262

// assay recombinant Tdp1 (residues 149–608) (Homo sapiens, UniProt Q9NUW8), entry COc1ccc(/C=N/Nc2nc(-c3c(O)c(C)c(O)c4c3OC3=CC(O)=C(C(C)=O)C(=O)[C@]34C)cs2)cc1COc1ccccc1F [(−)-17c] , Kd value = 74

// assay recombinant Tdp1 (residues 149–608) (Homo sapiens, UniProt Q9NUW8), entry COc1ccc(/C=N/Nc2nc(-c3c(O)c(C)c(O)c4c3OC3=CC(O)=C(C(C)=O)C(=O)[C@@]34C)cs2)cc1CN1CCN(c2ccc(F)cc2)CC1 [(+)-17i] , Kd value = 161
